measurement.notes: qHTS RealTime-Glo MT Cell Viability Assay in HEK293 cells - 0 hour (AID 1224880); further: nearly all actives have a fitted effect of over 45% in size
particulars: RealTime-Glo luminescence; series mostly up to 76.8 µM
Inconclusive results are not listed. Active and inactive are the calls of the source. The call rests on the fitted dose curve; in most records, active means well fitted cell-killing curve with a large enough effect in the repeat runs; inconclusive means weak or mixed curves, or effect the other way; inactive means flat fitted curve, though single readings scatter.
Tick one outcome: t = active, f = inactive

Reference set, count: 3
Incoming: So what was the verdict on `CCCCCC[C@@H](O)C/C=C\CCCCCCCC(=O)O` in this test?
Outgoing: f

Incoming: Please indicate how the test categorized `CC(=O)Nc1ccc(C)cc1C` .
Outgoing: f

Incoming: Query: recorded result category for `Cc1ccc(C(C)(C)O)cc1` in this test
Outgoing: f

Next:
Incoming: # fetch the recorded call for `CC(=O)[C@H]1[C@H](C#N)C[C@H]2[C@@H]3CC=C4C[C@@H](O)CC[C@]4(C)[C@H]3CC[C@@]21C` here
Outgoing: f

Incoming: Identify the outcome logged in this assay for the compound shown: `OC[C@H]1O[C@@H](n2cnc3c(=S)nc[nH]c32)[C@H](O)[C@@H]1O`
Outgoing: f

Incoming: Please state the recorded outcome for this compound: `CC1=C(Br)C(=O)C(Br)=C/C1=C(/c1ccccc1S(=O)(=O)O)c1cc(Br)c(O)c(Br)c1C`
Outgoing: t

Incoming: GET /call?item= CC1(CN2CCC(n3c(=O)[nH]c4ccccc43)CC2)OCc2ccccc2-n2cccc21 (stereo unspecified) returns the recorded outcome of this test.
Outgoing: f

Incoming: GET /call?item= `O=c1[nH]c2ccc(Cl)cc2o1` returns the recorded outcome of this test.
Outgoing: f

Incoming: Answer briefly: the call reported for `CCCCN(CCN(CCCC)C(=O)N1CCOCC1)C(=O)N1CCOCC1` in this assay.
Outgoing: f

Incoming: Write down the call the test reported for this compound. Item: `O=C(/C=C/c1ccc(O)c(O)c1)O[C@@H]1C[C@@](OC(=O)/C=C/c2ccc(O)c(O)c2)(C(=O)O)C[C@@H](O)[C@@H]1O`
Outgoing: f

====

measurement.notes: A CellTox Green Cytotoxicity Assay to monitor cytotoxicity in HepG2 cells - 32 hour (AID 1224883); further: nearly all actives have a fitted effect of over 50% in size
particulars: CellTox Green fluorescence; series mostly up to 76.8 µM
Inconclusive results are not listed. Active and inactive are the calls of the source. Calls follow the shape of the dose curve; as a rule, active = well fitted activation curve with a large enough effect in the repeat runs; inconclusive = weak or mixed curves; inactive = flat fitted curve, though single readings scatter.
Bench note: report the call from Yes (active), No (inactive)

Incoming: Dear all, I need the recorded test outcome for `Cc1[nH]cnc1CN1CCc2c(c3ccccc3n2C)C1=O` , thank you.
Outgoing: No

====

measurement.notes: qHTS assay to identify small molecule agonists of the progesterone receptor (PR) signaling pathway - cell viability counter screen (AID 1346799); further: nearly all actives have a fitted effect of over 45% in size
particulars: PR-UAS-bla HEK293T viability, CellTiter-Glo luminescence, 16 h; series mostly up to 92.4 µM
Inconclusive results are not listed. The source made the active and inactive calls. Calls come from the whole dose curve.
// classify into TRUE (active), FALSE (inactive)

Illustrative cases are given below, each with its answer.
Incoming: Recorded call for `COc1ccccc1N1CCN(CCCCNC(=O)c2ccc(-c3ccc(C(C)=O)cc3)cc2)CC1` ?
Outgoing: FALSE

Incoming: Could you kindly confirm the outcome this assay logged for `CC(C)(C)C(=O)C(=O)O` ?
Outgoing: FALSE

Incoming: Tell me the recorded outcome of this test for `CC(=O)Nc1ccc(C)cc1C` .
Outgoing: FALSE

Incoming: Per the assay record, what outcome was assigned to CCCCN1CCCC1C(=O)Nc1c(C)cc(C)cc1C (configuration not stated) ?
Outgoing: FALSE

Incoming: Field: outcome | Entry: `CC(=O)NC1(c2cccc(F)c2)CCN(CC[C@@]2(c3ccc(Cl)c(Cl)c3)CN(c3ccccc3)C(=O)CO2)CC1`
Outgoing: TRUE

Incoming: Per the records of this test, what outcome belongs to `CC(=O)Nc1cc(S(=O)(=O)O)cc2cc(S(=O)(=O)O)c(N=Nc3ccccc3)c(O)c12` ?
Outgoing: FALSE

Incoming: Outcome? `Cc1cc(C)c(N)cc1C`
Outgoing: FALSE

Incoming: # fetch the recorded call for `CCCCCCNC(=O)n1cc(F)c(=O)[nH]c1=O` here
Outgoing: FALSE

New cases:
Incoming: Called result for CN1CCCC(n2nc(Cc3ccc(Cl)cc3)c3ccccc3c2=O)CC1 (configuration not stated)
Outgoing: TRUE

Incoming: Hey, what did the test say about `CC=C(Cl)Cl` ?
Outgoing: FALSE

Incoming: GET /call?item= `Cc1ccc(C(C)(C)O)cc1` returns the recorded outcome of this test.
Outgoing: FALSE

Incoming: How was `CCC=CC#N` classified in this test?
Outgoing: FALSE

Incoming: How did this test come out for CCCCCC[C@@H](O)C/C=C\CCCCCCCC(=O)OCC(O)CO (some centres not stated) ?
Outgoing: FALSE

Incoming: Assay outcome for CCCCC(CC)COP(=O)(O)O (configuration not stated) : what was it?
Outgoing: FALSE

Incoming: // param item: `CN1C(=O)OC(C)(C)C1=O` ; yields the recorded call
Outgoing: FALSE

Incoming: Returns: the outcome recorded for NC1[C@H]2CN(c3nc4c(cc3F)c(=O)c(C(=O)O)cn4-c3ccc(F)cc3F)C[C@@H]12 (some centres not stated) in this assay.
Outgoing: FALSE

Incoming: What classification did `CCOC(=O)c1ccc(OCCN2C[C@H](O)[C@@H](O)[C@H](O)[C@H]2CO)cc1` end up with in this test?
Outgoing: FALSE

Incoming: Recorded test call requested for CC(O)c1ccccc1 (configuration not stated)
Outgoing: FALSE

====

measurement.notes: qHTS assay to identify small molecule antagonists of the retinoid acid receptor (RAR) signaling pathway - cell viability counter screen (AID 1159551); further: nearly all actives have a fitted effect of over 35% in size
particulars: C3RL4 cells viability, ATP luminescence (CellTiter-Glo), 6 h; series mostly up to 92.4 µM
Description: U.S. Tox21 Program National Center for Advancing Translational Sciences [NCATS] NIH Chemical Genomics Center [NCGC] U.S. Environmental Protection Agency [EPA] National Institutes of Environmental Health Sciences [NIEHS] National Toxicology Program [NTP] U.S. Food and Drug Administration [FDA] […] Also cytotoxicity was assessed by determining the viability of cells based on the quantitation of ATP. […]
Records with an inconclusive call do not appear. The source made the active and inactive calls. Calls come from the whole dose curve; as a rule, active = well fitted cell-killing curve with a large enough effect in the repeat runs; inconclusive = weak or mixed curves, or effect the other way; inactive = flat fitted curve, though single readings scatter.
Mark one answer only. Choices: active, inactive

Incoming: # fetch the recorded call for O=C(OCC(O)CO)c1ccccc1Nc1ccnc2cc(Cl)ccc12 (stereo not given) here
Outgoing: inactive

Incoming: # outcome recorded in this test, key = `Brc1cc(Br)c(Oc2cc(Br)c(Br)cc2Br)cc1Br`
Outgoing: inactive

Incoming: Outcome logged for `CC(C)(C)CC(=O)OCC(=O)[C@@]1(O)CC[C@H]2[C@@H]3CCC4=CC(=O)C=C[C@]4(C)[C@H]3[C@@H](O)C[C@@]21C` in this assay:
Outgoing: inactive

Incoming: Per the assay record, what outcome was assigned to `O=c1[nH]ncc2ccccc12` ?
Outgoing: inactive

Incoming: Test call, this compound: `CCCCCCCCCCCCCCN(CCO)CCO`
Outgoing: active

Incoming: Given `Cc1ccc2c(Br)cc(Br)c(O)c2n1` , state the outcome it received in this test.
Outgoing: inactive

Incoming: What was the test verdict on `C=COCC(C)C` ?
Outgoing: inactive

Incoming: Field: outcome | Entry: `CC(=O)[C@H]1[C@H](C#N)C[C@H]2[C@@H]3CC=C4C[C@@H](O)CC[C@]4(C)[C@H]3CC[C@@]21C`
Outgoing: inactive

Incoming: Recorded test call requested for `O=C1c2ccccc2C(=O)N1CCc1noc(-c2ccc(CN3CCCCCC3)s2)n1`
Outgoing: inactive

Incoming: Dear colleague, could you share the recorded outcome for CCCCC(CC)CN (stereo not given) when you have a moment?
Outgoing: inactive

Incoming: Just curious, what result did CC1(C)S[C@@H]2[C@H](NC(=O)C(c3ccccc3)S(=O)(=O)O)C(=O)N2[C@H]1C(=O)O (stereo not given in full) get here?
Outgoing: inactive

Incoming: Recorded test call requested for `O=C1c2ccccc2C(=O)C1c1nc2ccccc2c(Br)c1O`
Outgoing: inactive

Incoming: Short answer needed: outcome of this test for `CCOC(=O)c1ccccc1C(=C1C=C(Br)C(=O)C(Br)=C1)c1cc(Br)c(O)c(Br)c1` ?
Outgoing: inactive

Incoming: Can you look up the reported call for `C=Cc1ccc(S(=O)(=O)O)cc1` for me?
Outgoing: inactive

Incoming: Field: outcome | Entry: `CCC(C)(C)OC`
Outgoing: inactive

====

measurement.notes: qHTS assay to test for compound auto fluorescence at 535 nm (green) in HepG2 cells (AID 720675)
particulars: green autofluorescence 485/535 nm, 1 h; series mostly up to 91.3 µM
Activity calls are given as the source filed them. Calls come from the whole dose curve; as a rule, active = well fitted curve in the direction sought with a large enough effect in the repeat runs; inconclusive = weak or mixed curves; inactive = flat fitted curve, though single readings scatter.
observation.type: fluorescence, % of fluorescein control

Past entries and their recorded results:
Form: molecule = `CC(=O)NC1(c2cccc(F)c2)CCN(CC[C@@]2(c3ccc(Cl)c(Cl)c3)CN(c3ccccc3)C(=O)CO2)CC1` ; fluorescence, % of fluorescein control = inactive

Per the record, `Oc1c(I)cc(I)c2cccnc12` has fluorescence, % of fluorescein control of inactive

Note to self: fluorescence, % of fluorescein control recorded for `Cc1c(C)c2c(c(C)c1OC(=O)CCC(=O)OCCO)CC[C@@](C)(CCC[C@H](C)CCC[C@H](C)CCCC(C)C)O2` was inactive

Per the records, this molecule ( `CC(=O)OCC[N+](C)(C)C` ) has fluorescence, % of fluorescein control equal to inactive

The molecule listed as `c1csc(SSc2cccs2)c1` shows fluorescence, % of fluorescein control equal to inactive

Form: molecule = `CC(=O)Oc1ccc([N+](=O)[O-])cc1CCl` ; fluorescence, % of fluorescein control = inactive

---
According to the records, this molecule `CC(=O)c1ccc([N+](=O)[O-])cc1` displays fluorescence, % of fluorescein control of inactive

Note to self: fluorescence, % of fluorescein control recorded for `Cc1ccccc1S` was inactive

For reference, reported fluorescence, % of fluorescein control for `COc1cc(C(=O)NC2CCN(C)CC2)ccc1Nc1ncc2c(n1)N(C1CCCC1)CC(F)(F)C(=O)N2C` stands at inactive

The reported value for `Cc1cc(C)c(N)cc1C` in terms of fluorescence, % of fluorescein control is inactive

fluorescence, % of fluorescein control recorded for this molecule, `CCCCCCCC/C=C\CCCCCCCCO` , is inactive

Lab note: `CC(C)=CCC/C(C)=C/CC/C(C)=C/CCC(=O)OC/C=C(\C)CCC=C(C)C` gave fluorescence, % of fluorescein control of inactive

Lab book: fluorescence, % of fluorescein control of CCC1CO1 (configuration not stated) noted as inactive

The molecule listed as C=C1CCC2CC1C2(C)C (configuration not stated) has a reported fluorescence, % of fluorescein control of inactive
